Form field: pIC50 (one value per entry).
- protocol-text: Antagonist activity at human recombinant CCR5 expressed in human HeLa-P4 cells assessed as inhibition of human HeLa-P4 cells binding to HIV1 gp160 expressing CHO cells by cell-cell fusion assay
pIC50: −log10 of the molar value.

molecule: Cc1ccnc(C)c1C(=O)N1CC(N(C)C2CCN(C(c3ccccc3)c3ccccc3)CC2)C1
pIC50: 6.99
//
molecule: Cc1cccc(C)c1C(=O)N1CCC(N2CC[C@H](N(Cc3ccccc3)C(=O)C3CC3)C2)CC1
pIC50: 5.91
//
molecule: Cc1ccnc(C)c1C(=O)N1CCC(N2CC3CCC(C2)N3C(c2ccccc2)c2ccccc2)CC1
pIC50: 6.50
//
molecule: Cc1cccc(C)c1C(=O)N1CCC(N2CCC(N(Cc3ccccc3)C(=O)C3CCC3)CC2)CC1
pIC50: 8.52
//
molecule: Cc1cccc(C)c1C(=O)N1CCC(C)(N2CCC(N(Cc3ccccc3)C(=O)C3CC3)CC2)CC1
pIC50: 9.30
//
molecule: Cc1ccnc(C)c1C(=O)NCCN1CCCC(CC(c2ccccc2)c2ccccc2)C1 (racemic)
pIC50: 7.25
//
molecule: Cc1cccc(C)c1C(=O)N1CCC(N2CC(N(Cc3ccccc3)C(=O)C3CC3)C2)CC1
pIC50: 5.24
//
molecule: Cc1cccc(C)c1C(=O)N1[C@@H]2CC[C@H]1C[C@H](N1CC[C@@H](N(Cc3ccccc3)C(=O)C3CC3)C1)C2
pIC50: 9.00
//
molecule: Cc1ccnc(C)c1C(=O)N1CCC(N(C)C2CN(C(c3ccccc3)c3ccccc3)C2)CC1
pIC50: 7.62
//
molecule: CC(=O)NC(c1ccccc1)C1CN(C2CCN(C(=O)c3c(C)cccc3C)CC2)C1 (stereo not drawn)
pIC50: 5.60
//
molecule: Cc1ccnc(C)c1C(=O)N1CCC(N2C3CCC2CN(C(c2ccccc2)c2ccccc2)C3)CC1
pIC50: 7.39
//
molecule: Cc1cccc(C)c1C(=O)N1CCC(N2CCC(CNC(=O)C3CC3)(Cc3ccccc3)CC2)CC1
pIC50: 6.84
//
molecule: Cc1cccc(C)c1C(=O)N1CCC(N2CC[C@@H](N(Cc3ccccc3)C(=O)C3CC3)C2)CC1
pIC50: 9.00
